// GI50 lookup, one value per entry
System: PC-3
assay-notes: NCI tumour cell line growth inhibition, 48 h
Calls of active or inactive are those of the source. No stated cut-off is given here; in the data, active = GI50 up to about 1.1 µM and inactive = higher.
endpoint: GI50

compound: CCC(=O)Nc1ccc(NC(C#N)c2cccc(Oc3ccccc3)c2)cc1 (centres undefined)
measurement-target: PC-3
endpoint: GI50
result: 63.4 µM (inactive)
--
compound: C=CC[C@H](N=C(SC)SC)C(=O)N1C(=O)N(C)[C@@H](C)[C@H]1c1ccccc1
measurement-target: PC-3
endpoint: GI50
result: 33.7 µM (inactive)
--
compound: Cc1cc(O)nc(NN2C(Cl)C(=O)C2c2ccccc2O)n1 (centres undefined)
measurement-target: PC-3
endpoint: GI50
result: 1.32 µM (inactive)
--
compound: CC(C)OC1OC(CO)C(O)CC1n1cc(F)c(=O)[nH]c1=O (centres undefined)
measurement-target: PC-3
endpoint: GI50
result: > 100 µM (inactive)
--
compound: COc1ccc(CC/N=C2\OCc3ccccc32)cc1OC
measurement-target: PC-3
endpoint: GI50
result: 46.9 µM (inactive)
--
compound: CCOC(=O)CCC(NC(=O)c1ccc(/N=C/c2nc3cc(C(F)(F)F)ccc3nc2-c2ccccc2)cc1)C(=O)OCC (centres undefined)
measurement-target: PC-3
endpoint: GI50
result: > 50 µM (inactive)
--
compound: CNC1=C(C)C(=O)C(O)=C([C@H](C)CCC=C(C)C)C1=O
measurement-target: PC-3
endpoint: GI50
result: 22.6 µM (inactive)
--
compound: C=CC(=C)CCC(Br)C(C)(C)Cl (centres undefined)
measurement-target: PC-3
endpoint: GI50
result: > 100 µM (inactive)
--
compound: CCOC(=O)/C(=C\c1c[nH]c2ccccc12)P(=O)(OCC)OCC
measurement-target: PC-3
endpoint: GI50
result: 17.4 µM (inactive)
--
compound: CCOC(=O)NC(Nc1ccc(C(=O)OCC)cc1)(C(F)(F)F)C(F)(F)F
measurement-target: PC-3
endpoint: GI50
result: 45 µM (inactive)
--
compound: CC1Oc2cc3c(-c4c(O)cc(O)c5c(O)c6c(cc45)OC(C)C(C)C6=O)c(O)cc(O)c3c(O)c2C(=O)C1C (centres undefined)
measurement-target: PC-3
endpoint: GI50
result: 0.0546 µM (active)
--
compound: Cc1ccc([N+](=O)[O-])cc1S(=O)(=O)Nc1ccc(C(=O)/C=C/c2cccs2)cc1
measurement-target: PC-3
endpoint: GI50
result: 21.1 µM (inactive)
--
compound: CSc1nc(SC)c2c(C)c(Br)[nH]c2n1
measurement-target: PC-3
endpoint: GI50
result: > 100 µM (inactive)
--
compound: COc1ccc(OC)c(NC2=NCCO2)c1
measurement-target: PC-3
endpoint: GI50
result: > 100 µM (inactive)
--
compound: O=C(c1ccco1)N(C(=O)N1CCC(c2ccccc2)CC1)c1ccccc1
measurement-target: PC-3
endpoint: GI50
result: 22.3 µM (inactive)
--
compound: CNC(=S)N/N=C(C)\C(=N/NC(=S)NC)c1ccccc1
measurement-target: PC-3
endpoint: GI50
result: 30.9 µM (inactive)
--
compound: C=C1C(=O)O[C@H]2[C@H]3O[C@@H](C[C@@H]12)[C@@]1(C)CC[C@H](O1)C(C)=CCC[C@H]3C
measurement-target: PC-3
endpoint: GI50
result: 1.49 µM (inactive)
--
compound: Clc1ccc2c(NC3CCC(N4CCCCC4)CC3)ccnc2c1 (centres undefined)
measurement-target: PC-3
endpoint: GI50
result: 32.5 µM (inactive)
--
compound: CC/C(=N/O)c1ccc(Br)s1
measurement-target: PC-3
endpoint: GI50
result: > 100 µM (inactive)
--
compound: O=C1CC(n2ccnc2)c2c(Cl)sc(Cl)c21 (centres undefined)
measurement-target: PC-3
endpoint: GI50
result: 15.7 µM (inactive)
--
compound: COc1ccccc1C1ON=C(c2ccc([N+](=O)[O-])cc2)N1C12CC3CC(CC(C3)C1)C2 (centres undefined)
measurement-target: PC-3
endpoint: GI50
result: 33 µM (inactive)
--
compound: Cn1c(=O)c2c(O)cc(N)nc2n(C)c1=O
measurement-target: PC-3
endpoint: GI50
result: > 100 µM (inactive)
--
compound: N#CCCN(CCCN(C(=O)N(c1ccccc1)c1ccccc1)c1ccccc1)C(=O)Nc1ccccc1
measurement-target: PC-3
endpoint: GI50
result: 18.7 µM (inactive)
--
compound: O=C(N/N=C\c1ccccc1)Nc1cccc2ccccc12
measurement-target: PC-3
endpoint: GI50
result: 24.4 µM (inactive)
--
compound: Oc1ccc(Cl)cc1/C=N/c1cnc2ccccc2c1
measurement-target: PC-3
endpoint: GI50
result: 14.3 µM (inactive)
--
compound: CCN1CC(C)Cn2c(=O)[nH]c3cc(Br)cc1c32 (centres undefined)
measurement-target: PC-3
endpoint: GI50
result: 30.9 µM (inactive)
--
compound: CC(=N)OC1CC2CCC1(C)C2(C)C (centres undefined)
measurement-target: PC-3
endpoint: GI50
result: > 100 µM (inactive)
--
compound: Cc1cc(=O)c2ccccc2n1CCCCCCCCCCn1c(C)cc(=O)c2ccccc21
measurement-target: PC-3
endpoint: GI50
result: 28.8 µM (inactive)
--
compound: Cc1ccc(S(=O)(=O)NC2=NS(=O)(=O)c3cc(C)c(Cl)cc3S2)cc1
measurement-target: PC-3
endpoint: GI50
result: 45.5 µM (inactive)
